- Test system: SARS-CoV-2 B.1.1.7 (alpha)
- test.name: microbe, parasite or virus in culture
- Format: cell-based
- recorded.conditions: Severe acute respiratory syndrome coronavirus 2, Vero C1008; read-out: IC50 against B.1.1.7, 24 h infection
endpoint.name: IC50 (nM)
Value expressed in nM; do not type the unit.

Consider O=C(Nc1ccc([N+](=O)[O-])cc1Cl)c1cc(Cl)ccc1O [Niclosamide] . Its measured IC50 is 298

----------
Each entry below carries its reported CC50.
- test.name: in vitro
- recorded.conditions: African green monkey
Value expressed in µM; do not type the unit.

Worked cases, CC50 given:
Consider O=C(Nc1ccc([N+](=O)[O-])cc1Cl)c1ccccc1O [Compound 2] . Its measured CC50 is 5.59

Consider O=C(Nc1ccc([N+](=O)[O-])cc1Cl)c1cc(Cl)ccc1O [Niclosamide] . Its measured CC50 is 1.05

Consider CC(C)(C)c1ccc(O)c(C(=O)Nc2ccc([N+](=O)[O-])cc2Cl)c1 [Compound 11] . Its measured CC50 is 3.41

Consider COC(=O)c1ccc(NC(=O)c2cc(Cl)ccc2O)c(Cl)c1 [Compound 7] . Its measured CC50 is 8.14

Now, please, on to the next molecule.
Consider N#Cc1ccc(NC(=O)c2cc(Cl)ccc2O)c(Cl)c1 [Compound 24] . Its measured CC50 is 4.72

----------
Reported CC50, VeroE6 cells.
Value expressed in µM; do not type the unit.

Worked cases, CC50 given:
Item CC(C)(C)c1ccc(O)c(C(=O)Nc2ccc(C(=O)O)cc2Cl)c1 [Compound 14] was tested on VeroE6 cells; the reported CC50 is 14.2

Item O=C(Nc1ccccc1Cl)c1cc(Cl)ccc1O [Compound 5] was tested on VeroE6 cells; the reported CC50 is 8.44

Item COc1ccc(O)c(C(=O)Nc2ccc([N+](=O)[O-])cc2Cl)c1 [Compound 4] was tested on VeroE6 cells; the reported CC50 is 10.1

Continuing:
Item COc1ccc(O)c(C(=O)Nc2ccc([N+](=O)[O-])cc2Cl)c1 [Compound 12] was tested on VeroE6 cells; the reported CC50 is 10.3

Item O=C(Nc1ccc(Br)cc1Cl)c1cc(Cl)ccc1O [Compound 34] was tested on VeroE6 cells; the reported CC50 is 5.47

----------
- test.name: Cell viability (cell count per well) in H1437, 72 h compound exposure
- Type: cell-based, human
- recorded.conditions: human, H1437 cells infected with SARS-CoV-2 WA1, H1437 infected with WA1, 72 h compound exposure, read-out: H1437 (WA1) CC50
Each entry below carries its reported CC50 at 72 h.

Worked cases, CC50 at 72 h given:
Consider `COC(=O)c1ccc(NC(=O)c2cc(Cl)ccc2O)c(Cl)c1` . Its measured CC50 at 72 h is > 20 µM

Consider `N#Cc1ccc(NC(=O)c2cc(Cl)ccc2O)c(Cl)c1` . Its measured CC50 at 72 h is 0.88 µM

Consider `O=C(Nc1ccc([N+](=O)[O-])cc1Cl)c1ccccc1O` . Its measured CC50 at 72 h is 8.4 µM

Consider `O=C(Nc1ccc([N+](=O)[O-])cc1Cl)c1cccc(Cl)c1` . Its measured CC50 at 72 h is > 20 µM

Consider `CC(C)(C)c1ccc(O)c(C(=O)Nc2ccc([N+](=O)[O-])cc2Cl)c1` . Its measured CC50 at 72 h is 1.92 µM

Now, please, on to the next compound.
Consider O=C(Nc1ccc([N+](=O)[O-])cc1Cl)c1cc(Cl)ccc1O [Niclosamide] . Its measured CC50 at 72 h is 17.1 µM

----------
- Tested on: H1437 cells
- test.name: Cell viability (cell count per well) in H1437, 72 h compound exposure
- Format: cell-based, human
- recorded.conditions: H1437 infected with WA1, 72 h compound exposure
Each entry below carries its reported CC50.

Consider `CC(C)(C)c1cccc(C(=O)Nc2ccc([N+](=O)[O-])cc2Cl)c1O` . Its measured CC50 is 1.11 µM

Consider `COC(=O)c1ccc(NC(=O)c2cc(C(C)(C)C)ccc2O)c(Cl)c1` . Its measured CC50 is > 20 µM

Consider COc1ccc(O)c(C(=O)Nc2ccc([N+](=O)[O-])cc2Cl)c1 [Compound 12] . Its measured CC50 is 7.53 µM

Consider `Cc1ccc(NC(=O)c2cc(Cl)ccc2O)c(Cl)c1` . Its measured CC50 is 6.05 µM

Consider `CC(C)(C)c1cccc(C(=O)Nc2ccc(C(=O)O)cc2Cl)c1O` . Its measured CC50 is > 20 µM

Consider `CC(C)(C)c1cc(C(=O)Nc2ccc(NS(C)(=O)=O)cc2Cl)c(O)c(C(C)(C)C)c1` . Its measured CC50 is > 20 µM

Consider `O=C(O)c1ccc(NC(=O)c2cc(Cl)ccc2O)c(Cl)c1` . Its measured CC50 is > 20 µM

Consider `COC(=O)c1ccc(NC(=O)c2cc(C(F)(F)F)ccc2O)c(C)c1` . Its measured CC50 is > 20 µM

Continuing:
Consider `O=C(O)c1ccc(NC(=O)c2cc(C3CCCCC3)ccc2O)c(Cl)c1` . Its measured CC50 is > 20 µM

Consider `CC(C)(C)c1ccc(O)c(C(=O)Nc2ccc(C(=O)O)cc2F)c1` . Its measured CC50 is > 20 µM

Consider `Cc1ccc(O)c(C(=O)Nc2ccc([N+](=O)[O-])cc2Cl)c1` . Its measured CC50 is 3.06 µM

Consider `COc1ccc(O)c(C(=O)Nc2ccc(C(=O)O)cc2C)c1` . Its measured CC50 is > 20 µM

Consider `O=C(Nc1ccc(Br)cc1Cl)c1cc(Cl)ccc1O` . Its measured CC50 is 3.62 µM

Consider `Cc1cc(C(=O)O)ccc1NC(=O)c1cc(C(C)(C)C)ccc1O` . Its measured CC50 is > 20 µM

Consider COc1ccc(O)c(C(=O)Nc2ccc([N+](=O)[O-])cc2Cl)c1 [Compound 4] . Its measured CC50 is 8.94 µM

Consider `COC(=O)c1ccc(NC(=O)c2cc(C3CCCCC3)ccc2O)c(Cl)c1` . Its measured CC50 is > 20 µM

Consider `COc1ccc(NC(=O)c2cc(Cl)ccc2O)c(Cl)c1` . Its measured CC50 is 18.9 µM

Consider `CC(C)(C)c1cc(C(=O)Nc2ccc(N)cc2Cl)c(O)c(C(C)(C)C)c1` . Its measured CC50 is > 20 µM

Consider `Cc1cc(NC(=O)c2cc(C(C)(C)C)cc(C(C)(C)C)c2O)ccc1C(=O)O` . Its measured CC50 is > 20 µM

----------
- test.name: in vitro
- recorded.conditions: African green monkey
endpoint.name: CC50

Consider `O=[N+]([O-])c1ccc(O)c([N+](=O)[O-])c1` . Its measured CC50 is > 100 µM

----------
- Test system: H1437 cells
- test.name: Cell viability (cell count per well) in H1437, 72 h compound exposure
- Type: cell-based, human
- recorded.conditions: H1437 infected with WA1, 72 h compound exposure
Each entry below carries its reported CC50.

Worked cases, CC50 given:
Item CC(C)(C)c1cccc(C(=O)Nc2ccc(NS(C)(=O)=O)cc2Cl)c1O [Compound 33] was tested on H1437 cells; the reported CC50 is > 20 µM

Item CC(C)(C)c1cc(C(=O)Nc2ccc(C(=O)O)cc2Cl)c(O)c(C(C)(C)C)c1 [Compound 26] was tested on H1437 cells; the reported CC50 is > 20 µM

Continuing:
Item CC(C)(C)c1ccc(O)c(C(=O)Nc2ccc(C(=O)O)cc2Cl)c1 [Compound 14] was tested on H1437 cells; the reported CC50 is > 20 µM

Item O=C(Nc1ccccc1Cl)c1cc(Cl)ccc1O [Compound 5] was tested on H1437 cells; the reported CC50 is 18.6 µM

Item CC(C)(C)c1cccc(C(=O)Nc2ccc(N)cc2Cl)c1O [Compound 32] was tested on H1437 cells; the reported CC50 is > 20 µM

Item COC(=O)c1ccc(NC(=O)c2cccc(C(C)(C)C)c2O)c(Cl)c1 [Compound 25] was tested on H1437 cells; the reported CC50 is > 20 µM

----------
Reported CC50, VeroE6 cells.

Worked cases, CC50 given:
Item `Cc1ccc(O)c(C(=O)Nc2ccc([N+](=O)[O-])cc2Cl)c1` was tested on VeroE6 cells; the reported CC50 is 6.28 µM

Item `CC(C)(C)c1cccc(C(=O)Nc2ccc(C(=O)O)cc2Cl)c1O` was tested on VeroE6 cells; the reported CC50 is > 20 µM

Item `CC(C)(C)c1cc(C(=O)Nc2ccc(N)cc2Cl)c(O)c(C(C)(C)C)c1` was tested on VeroE6 cells; the reported CC50 is 17.6 µM

Item Cc1cc(NC(=O)c2cc(C(C)(C)C)cc(C(C)(C)C)c2O)ccc1C(=O)O [Compound 20] was tested on VeroE6 cells; the reported CC50 is > 20 µM

Item `Cc1ccc(NC(=O)c2cc(Cl)ccc2O)c(Cl)c1` was tested on VeroE6 cells; the reported CC50 is 4.59 µM

Continuing:
Item `CC(C)(C)c1cccc(C(=O)Nc2ccc([N+](=O)[O-])cc2Cl)c1O` was tested on VeroE6 cells; the reported CC50 is 7.21 µM

Item `COc1ccc(NC(=O)c2cc(Cl)ccc2O)c(Cl)c1` was tested on VeroE6 cells; the reported CC50 is > 20 µM

Item `COC(=O)c1ccc(NC(=O)c2cc(C(C)(C)C)ccc2O)c(Cl)c1` was tested on VeroE6 cells; the reported CC50 is 14.6 µM

Item `O=C(O)c1ccc(NC(=O)c2cc(C3CCCCC3)ccc2O)c(Cl)c1` was tested on VeroE6 cells; the reported CC50 is > 20 µM

Item Cc1cc(NC(=O)c2cc(C(C)(C)C)cc(C(C)(C)C)c2O)ccc1C(=O)O [Compound 27] was tested on VeroE6 cells; the reported CC50 is > 20 µM
